test: Pharmacokinetics in SD Rat; type: in vivo, Sprague-Dawley (SD) rat; details: Sprague-Dawley; male SD rat, IV 3 mg/kg, plasma
measurement.type: clearance (mL/min/kg)

Solved cases (2 shown):
C=C(F)C(=O)Nc1ccc(-c2nn3ncnc(N)c3c2-c2ccc(C(=O)NC3CC(F)(F)C3)c(OC)c2)cc1; 18
C=C(F)C(=O)Nc1ccc(-c2[nH]c3c(C#N)cnc(N)c3c2-c2ccc(C(=O)NCC(F)(F)F)c(OC)c2)cc1; 3.4

[A] C=C(F)C(=O)Nc1ccc(-c2c(-c3ccc(C(=O)NCC(F)(F)F)c(OC)c3)c3c(N)ncc(C#N)c3n2C)cc1
[B] C=C(F)C(=O)Nc1ccc(-c2nn3ncnc(N)c3c2-c2ccc(C(=O)NCC(F)(F)F)c(OC)c2)cc1
Field: lower recorded clearance (choose A or B ) Give the chosen item's label as your response.
A
(A: 3.1 mL/min/kg, B: 18 mL/min/kg)

[P] C=C(F)C(=O)Nc1ccc(-c2nn3ncnc(N)c3c2-c2ccc(C(=O)NC3CC3(F)F)c(OC)c2)cc1 (stereo not shown)
[Q] C=C(F)C(=O)Nc1ccc(-c2[nH]c3c(C#N)cnc(N)c3c2-c2ccc(C(=O)NC3CC3)c(OC)c2)cc1
Could you kindly indicate whether P or Q has the higher clearance value? Give the chosen item's label as your response.
P

* * *

assay: Pharmacokinetics in SD Rat; type: in vivo, Sprague-Dawley (SD) rat; details: Sprague-Dawley; male SD rat, IV 3 mg/kg, plasma
measurement.type: clearance (mL/min/kg)

C=C(F)C(=O)Nc1ccc(-c2nn3ncnc(N)c3c2-c2ccc(C(=O)NCCC(F)(F)F)c(OC)c2)cc1; 16
C=C(F)C(=O)Nc1ccc(-c2nn3ncnc(N)c3c2-c2ccc(C(=O)NCC3(C(F)(F)F)CC3)c(OC)c2)cc1; 11
C=CC(=O)Nc1ccc(-c2c(-c3ccc(C(=O)NCC(F)(F)F)c(OC)c3)c3c(N)ncc(C#N)c3n2C)cc1; 19

[1] C=C(F)C(=O)Nc1ccc(-c2nn3ncnc(N)c3c2-c2ccc(C(=O)NC34CC(F)(C3)C4)c(OC)c2)cc1
[2] C=C(F)C(=O)Nc1ccc(-c2nn3ncnc(N)c3c2-c2ccc(C(=O)NC3(C(F)(F)F)CC3)c(OC)c2)cc1
[3] C=C(F)C(=O)Nc1ccc(-c2nn3ncnc(N)c3c2-c2ccc(C(=O)NC3CC(F)C3)c(OC)c2)cc1 (stereo not drawn)
Sort these compounds on clearance so the largest reading comes first. Answer format: the labels, ordered as requested.
3, 2, 1
(3: 26 mL/min/kg, 2: 17 mL/min/kg, 1: 6.1 mL/min/kg)

* * *

assay: Pharmacokinetics in SD Rat; type: in vivo, Sprague-Dawley (SD) rat; details: Sprague-Dawley; male SD rat, plasma; PO 15 mg/kg (IV used for Clearance)
measurement.type: AUC(0-inf) (ng·h/mL)

Solved cases (3 shown):
C=C(F)C(=O)Nc1ccc(-c2nn3ncnc(N)c3c2-c2ccc(C(=O)NCC(F)(F)F)c(OC)c2)cc1 [Compound 71]; 3230
C=C(F)C(=O)Nc1ccc(-c2nn3ncnc(N)c3c2-c2ccc(C(=O)NCCC(F)(F)F)c(OC)c2)cc1 [Compound 310]; 2970
C=CC(=O)Nc1ccc(-c2c(-c3ccc(C(=O)NCC(F)(F)F)c(OC)c3)c3c(N)ncc(C#N)c3n2C)cc1 [Compound 28]; 1240

[A] C=C(F)C(=O)Nc1ccc(-c2[nH]c3c(C#N)cnc(N)c3c2-c2ccc(C(=O)NCC(F)(F)F)c(OC)c2)cc1 [Compound 302]
[B] C=C(F)C(=O)Nc1ccc(-c2nn3ncnc(N)c3c2-c2ccc(C(=O)NC3CC(F)(F)C3)c(OC)c2)cc1 [Compound 99]
Could you kindly indicate whether A or B has the higher AUC(0-inf) value? Give the chosen item's label as your response.
B

* * *

test: Pharmacokinetics in SD Rat; format: in vivo, Sprague-Dawley (SD) rat; conditions: Sprague-Dawley; male SD rat, plasma; PO 15 mg/kg (IV used for Clearance); read-out: Cmax
measurement.type: Cmax (ng/mL)

Solved cases (5 shown):
C=C(F)C(=O)Nc1ccc(-c2[nH]c3c(C#N)cnc(N)c3c2-c2ccc(C(=O)NC3CC3)c(OC)c2)cc1 [Compound 235]; 442
C=C(C)C(=O)Nc1ccc(-c2c(-c3ccc(Oc4nccc(C)n4)c(F)c3)c3c(N)ncnc3n2C)cc1 [Compound 0, reference compound]; 244
C=C(F)C(=O)Nc1ccc(-c2[nH]c3c(C#N)cnc(N)c3c2-c2ccc(C(=O)NCC(F)(F)F)c(OC)c2)cc1 [Compound 302]; 615
C=C(F)C(=O)Nc1ccc(-c2c(-c3ccc(C(=O)NCC(F)(F)F)c(OC)c3)c3c(N)ncc(C#N)c3n2C)cc1 [Compound 96]; 621
C=C(F)C(=O)Nc1ccc(-c2nn3ncnc(N)c3c2-c2ccc(C(=O)NC34CC(F)(C3)C4)c(OC)c2)cc1 [Compound 330]; 509

[1] C=C(F)C(=O)Nc1ccc(-c2nn3ncnc(N)c3c2-c2ccc(C(=O)NC3CC(F)C3)c(OC)c2)cc1 (stereo not shown) [Compound 185]
[2] C=C(F)C(=O)Nc1ccc(-c2nn3ncnc(N)c3c2-c2ccc(C(=O)NC3CC(F)(F)C3)c(OC)c2)cc1 [Compound 99]
Field: lower recorded Cmax (choose 1 or 2 ) Give the chosen item's label as your response.
1

* * *

biological target: FGFR2 (Homo sapiens)
Sequence (P21802 22-821): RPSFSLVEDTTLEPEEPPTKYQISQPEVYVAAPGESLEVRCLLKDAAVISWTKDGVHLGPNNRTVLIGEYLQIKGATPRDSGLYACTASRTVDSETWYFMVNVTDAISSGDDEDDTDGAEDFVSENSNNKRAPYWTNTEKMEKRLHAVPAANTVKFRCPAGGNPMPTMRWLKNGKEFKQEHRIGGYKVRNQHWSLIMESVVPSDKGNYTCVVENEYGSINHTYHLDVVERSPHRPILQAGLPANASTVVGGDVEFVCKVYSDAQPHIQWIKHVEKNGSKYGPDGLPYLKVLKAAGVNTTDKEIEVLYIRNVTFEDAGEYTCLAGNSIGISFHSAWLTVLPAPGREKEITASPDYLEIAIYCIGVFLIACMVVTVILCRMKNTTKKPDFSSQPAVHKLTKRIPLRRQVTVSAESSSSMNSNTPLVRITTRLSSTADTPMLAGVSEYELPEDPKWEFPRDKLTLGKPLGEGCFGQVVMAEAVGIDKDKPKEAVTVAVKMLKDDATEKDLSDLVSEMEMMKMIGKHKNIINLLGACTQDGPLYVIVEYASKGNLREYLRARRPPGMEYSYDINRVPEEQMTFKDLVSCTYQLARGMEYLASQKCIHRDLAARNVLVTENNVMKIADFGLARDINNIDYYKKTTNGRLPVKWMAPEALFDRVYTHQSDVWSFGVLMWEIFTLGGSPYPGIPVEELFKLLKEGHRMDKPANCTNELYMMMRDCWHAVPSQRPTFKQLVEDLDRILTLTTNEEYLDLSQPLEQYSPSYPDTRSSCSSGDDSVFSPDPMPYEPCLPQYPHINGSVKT
pIC50: −log10 of the molar value.
pIC50 values for the compounds below.

Enter measured pIC50, system FGFR2 (Homo sapiens), for the compound shown: C=CC(=O)Nc1ccc(-c2nn3ncnc(N)c3c2-c2ccc(Oc3nccc(CC)n3)c(F)c2)cc1
> 8.30

* * *

experiment: Pharmacokinetics in SD Rat; type: in vivo, Sprague-Dawley (SD) rat; details: Sprague-Dawley; male SD rat, plasma; PO 15 mg/kg (IV used for Clearance)
measurement.type: half-life (h)

C=C(F)C(=O)Nc1ccc(-c2nn3ncnc(N)c3c2-c2ccc(C(=O)NC3CC(F)C3)c(OC)c2)cc1 (stereo not shown) [Compound 185]; 3
C=C(C)C(=O)Nc1ccc(-c2c(-c3ccc(Oc4nccc(C)n4)c(F)c3)c3c(N)ncnc3n2C)cc1 [Compound 0, reference compound]; 1.5

[1] C=C(F)C(=O)Nc1ccc(-c2[nH]c3c(C#N)cnc(N)c3c2-c2ccc(C(=O)NC3CC3)c(OC)c2)cc1 [Compound 235]
[2] C=C(F)C(=O)Nc1ccc(-c2c(-c3ccc(C(=O)NCC(F)(F)F)c(OC)c3)c3c(N)ncc(C#N)c3n2C)cc1 [Compound 96]
Could you kindly indicate whether 1 or 2 has the higher half-life value? Give the chosen item's label as your response.
2

* * *

Test: Pharmacokinetics in SD Rat
Type: in vivo, Sprague-Dawley (SD) rat
Details: Sprague-Dawley; male SD rat, plasma; PO 15 mg/kg (IV used for Clearance)
Method: Animal studies were done as approved protocols by the Institutional Animal Care and Use Committee at INVIVO Biotech Co., Ltd. Animal information: Sprague-Dawley (SD) rat, SPF, 6-8 weeks, Male, weight 200-250 g, purchased from Beijing Vital River Lab (Beijing, People's Republic of China). Formulation: Prepare 1.5 mg/ml and 0.6 mg/ml compound solution in […](20% HPβCD) for PO and IV respectively, dosing immediately after preparation. Administration: PO and IV;
measurement.type: half-life (min)

Solved cases (5 shown):
C=C(F)C(=O)Nc1ccc(-c2nn3ncnc(N)c3c2-c2ccc(C(=O)NCC3(C(F)(F)F)CC3)c(OC)c2)cc1 [Compound 309]; 156
C=C(F)C(=O)Nc1ccc(-c2nn3ncnc(N)c3c2-c2ccc(C(=O)NC3(C(F)(F)F)CC3)c(OC)c2)cc1 [Compound 308]; 144
C=C(F)C(=O)Nc1ccc(-c2nn3ncnc(N)c3c2-c2ccc(C(=O)NC34CC(F)(C3)C4)c(OC)c2)cc1 [Compound 330]; 144
C=C(F)C(=O)Nc1ccc(-c2[nH]c3c(C#N)cnc(N)c3c2-c2ccc(C(=O)NCC(F)(F)F)c(OC)c2)cc1 [Compound 302]; 162
C=CC(=O)Nc1ccc(-c2c(-c3ccc(C(=O)NCC(F)(F)F)c(OC)c3)c3c(N)ncc(C#N)c3n2C)cc1 [Compound 28]; 58.8

[P] C=C(F)C(=O)Nc1ccc(-c2nn3ncnc(N)c3c2-c2ccc(C(=O)NC3CC3(F)F)c(OC)c2)cc1 (stereo not drawn) [Compound 193]
[Q] C=C(F)C(=O)Nc1ccc(-c2nn3ncnc(N)c3c2-c2ccc(C(=O)NCC(F)(F)F)c(OC)c2)cc1 [Compound 71]
[R] C=C(F)C(=O)Nc1ccc(-c2nn3ncnc(N)c3c2-c2ccc(C(=O)NCCC(F)(F)F)c(OC)c2)cc1 [Compound 310]
List the 3 entries from lowest half-life to highest half-life value. Answer format: the labels, ordered as requested.
R, Q, P
(R: 66 min, Q: 108 min, P: 216 min)

* * *

assay: Pharmacokinetics in SD Rat; format: in vivo, Sprague-Dawley (SD) rat; settings: Sprague-Dawley; male SD rat, plasma; PO 15 mg/kg (IV used for Clearance); read-out: Cmax
measurement.type: Cmax (ng/mL)

C=C(F)C(=O)Nc1ccc(-c2nn3ncnc(N)c3c2-c2ccc(C(=O)NCC3(C(F)(F)F)CC3)c(OC)c2)cc1; 957
C=C(F)C(=O)Nc1ccc(-c2nn3ncnc(N)c3c2-c2ccc(C(=O)NCCC(F)(F)F)c(OC)c2)cc1; 1190
C=C(F)C(=O)Nc1ccc(-c2nn3ncnc(N)c3c2-c2ccc(C(=O)NC3(C(F)(F)F)CC3)c(OC)c2)cc1; 1180
C=C(F)C(=O)Nc1ccc(-c2nn3ncnc(N)c3c2-c2ccc(C(=O)NC3CC3(F)F)c(OC)c2)cc1 (stereo not drawn); 1390

[A] C=C(F)C(=O)Nc1ccc(-c2nn3ncnc(N)c3c2-c2ccc(C(=O)NCC(F)(F)F)c(OC)c2)cc1
[B] C=CC(=O)Nc1ccc(-c2c(-c3ccc(C(=O)NCC(F)(F)F)c(OC)c3)c3c(N)ncc(C#N)c3n2C)cc1
Could you kindly indicate whether A or B has the higher Cmax value? Give the chosen item's label as your response.
A
